Biological target: human TLR7 (Homo sapiens (Human))
Sequence (Q9NYK1 27-1049): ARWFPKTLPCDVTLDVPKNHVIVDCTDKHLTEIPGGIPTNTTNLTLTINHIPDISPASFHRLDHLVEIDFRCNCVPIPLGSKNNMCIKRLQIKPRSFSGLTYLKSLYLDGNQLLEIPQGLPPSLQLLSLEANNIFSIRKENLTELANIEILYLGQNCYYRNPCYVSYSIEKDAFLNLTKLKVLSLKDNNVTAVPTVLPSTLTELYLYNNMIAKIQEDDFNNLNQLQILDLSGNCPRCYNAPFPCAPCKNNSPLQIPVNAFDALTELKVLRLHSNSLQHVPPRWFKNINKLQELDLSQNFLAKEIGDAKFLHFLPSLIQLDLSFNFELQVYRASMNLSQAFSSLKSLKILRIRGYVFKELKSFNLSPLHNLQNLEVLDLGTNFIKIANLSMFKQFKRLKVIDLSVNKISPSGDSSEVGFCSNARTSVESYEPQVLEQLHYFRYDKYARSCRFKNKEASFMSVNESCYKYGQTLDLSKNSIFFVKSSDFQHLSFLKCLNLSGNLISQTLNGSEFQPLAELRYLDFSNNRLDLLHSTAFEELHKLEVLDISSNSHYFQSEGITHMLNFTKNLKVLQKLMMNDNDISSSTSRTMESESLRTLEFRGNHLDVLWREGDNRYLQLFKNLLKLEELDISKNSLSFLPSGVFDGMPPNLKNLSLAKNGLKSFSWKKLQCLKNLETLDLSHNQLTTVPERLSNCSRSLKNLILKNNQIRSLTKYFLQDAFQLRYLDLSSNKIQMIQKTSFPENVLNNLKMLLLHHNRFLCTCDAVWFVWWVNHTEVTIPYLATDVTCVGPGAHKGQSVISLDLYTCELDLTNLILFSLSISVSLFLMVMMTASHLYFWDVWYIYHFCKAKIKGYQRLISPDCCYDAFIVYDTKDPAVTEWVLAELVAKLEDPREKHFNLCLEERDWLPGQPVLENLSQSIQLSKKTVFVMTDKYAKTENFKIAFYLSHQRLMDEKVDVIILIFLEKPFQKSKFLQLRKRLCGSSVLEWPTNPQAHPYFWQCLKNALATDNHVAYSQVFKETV
Assay: TLR7 inhibition reporter assay (HEK-Blue SEAP reporter, gardiquimod stimulation)
Type: cell-based
Conditions: HEK-Blue cells overexpressing human TLR7, gardiquimod 7.5 μM
pIC50: −log10 of the molar value.
Experimental Readout: pIC50

Completed entries (count: 3):
Cc1cc(-c2[nH]c3ccc(C(C)(C)C(=O)NC[C@H]4CC[C@H](N)CC4)cc3c2C(C)C)ccn1 : 7.24
Cc1cc(-c2[nH]c3ccc(C(C)(C)C(=O)NC[C@@H](F)C(C)(C)O)cc3c2C(C)C)ccn1 : 6.55
CCc1c(-c2ccc(OC)c(OC)c2)[nH]c2ccc(C(=O)NCCO)cc12 : 6.01

(A) Cc1cc(-c2[nH]c3ccc(C(=O)N4CC5CN(C(=O)CN(C)C)CC5C4)cc3c2C(C)C)cc(C)n1 (stereo not shown)
(B) Cc1cc(-c2[nH]c3ccc(C(C)(C)C(=O)N4CCCC5(CCCCC5N)C4)cc3c2C(C)C)ccn1 (stereo not shown)
(C) Cc1cc(-c2[nH]c3ccc(C(C)C(=O)NC[C@@H](F)C(C)(C)O)cc3c2C(C)C)ccn1 (stereo partly shown)
(D) Cc1cc(-c2[nH]c3ccc(C(C)C(=O)N[C@@H]4CCCNC4)cc3c2C(C)C)ccn1 (stereo partly shown) [Example 195]
**Query** // ranking: key=pIC50, reverse=True API: response body holds the labels in the requested order.
**Result** B, A, D, C
(B: 7.51, A: 6.77, D: 6.56, C: 6.13)

###

Target: human TLR7 (Homo sapiens (Human))
Test: TLR7 inhibition reporter assay (HEK-Blue SEAP reporter, gardiquimod stimulation)
Type: cell-based
Conditions: HEK-Blue cells overexpressing human TLR7, gardiquimod 7.5 μM
Experimental Readout: IC50 (nM)

COc1ccc(-c2[nH]c3ccc(C(=O)N4CC5CN(CC(=O)N(C)C)CC5C4)cc3c2C(C)C)cc1OC (centres unmarked) : 180

(A) Cc1cc(-c2[nH]c3ccc(C(C)(C)C(=O)NCCC(C)(C)O)cc3c2C(C)C)ccn1
(B) COc1ccc(-c2[nH]c3ccc(CCC(=O)N4CC5CNCC5C4)cc3c2C(C)C)cc1OC (centres unmarked)
**Query** Just tell me: smaller IC50 value, A or B ? Pick one; state its label.
**Result** B
(B: 109 nM, A: 202 nM)

###

Biological target: human TLR8 (Homo sapiens (Human), UniProt Q9NR97)
Sequence (Q9NR97 27-1041): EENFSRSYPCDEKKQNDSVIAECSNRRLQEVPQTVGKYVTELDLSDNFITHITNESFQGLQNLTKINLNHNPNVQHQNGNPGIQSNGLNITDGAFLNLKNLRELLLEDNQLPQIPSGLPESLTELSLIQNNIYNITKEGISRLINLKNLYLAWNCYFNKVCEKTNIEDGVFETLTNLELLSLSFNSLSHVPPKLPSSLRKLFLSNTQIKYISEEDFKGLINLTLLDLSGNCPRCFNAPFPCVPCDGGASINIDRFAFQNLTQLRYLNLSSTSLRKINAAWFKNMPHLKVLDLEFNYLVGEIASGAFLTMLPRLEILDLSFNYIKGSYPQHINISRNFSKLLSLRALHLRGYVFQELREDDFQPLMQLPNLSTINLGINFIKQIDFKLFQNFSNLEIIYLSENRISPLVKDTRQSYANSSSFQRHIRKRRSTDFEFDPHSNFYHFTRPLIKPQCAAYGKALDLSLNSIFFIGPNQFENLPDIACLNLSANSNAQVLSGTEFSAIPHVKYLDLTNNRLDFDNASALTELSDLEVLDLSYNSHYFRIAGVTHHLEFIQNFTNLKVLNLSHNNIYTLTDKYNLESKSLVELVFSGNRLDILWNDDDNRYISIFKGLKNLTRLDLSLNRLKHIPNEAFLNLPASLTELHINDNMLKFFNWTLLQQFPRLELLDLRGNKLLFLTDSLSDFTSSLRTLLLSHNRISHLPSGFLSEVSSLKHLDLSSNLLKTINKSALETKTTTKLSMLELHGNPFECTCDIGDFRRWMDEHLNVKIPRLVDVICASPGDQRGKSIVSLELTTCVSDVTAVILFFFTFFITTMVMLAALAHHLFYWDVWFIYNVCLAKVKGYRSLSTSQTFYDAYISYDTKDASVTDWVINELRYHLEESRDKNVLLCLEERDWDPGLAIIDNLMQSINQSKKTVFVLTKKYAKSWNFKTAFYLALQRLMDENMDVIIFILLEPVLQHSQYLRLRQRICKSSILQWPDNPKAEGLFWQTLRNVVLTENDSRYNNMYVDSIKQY
Test: TLR8 inhibition reporter assay (HEK-Blue SEAP reporter, R848 stimulation);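 also: SEAP driven by IFN-β minimal promoter with NF-κB and AP-1 sites, 22 h incubation, compounds 0.05 nM–50 µM, inhibition scaled between agonist plus DMSO and reference inhibitor wells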
Conditions: read-out: TLR8 IC50; HEK-Blue cells overexpressing human TLR8, R848 15.9 μM, SEAP reporter
Experimental Readout: IC50 (nM)

Completed entries (count: 3):
Cc1cc(-c2[nH]c3ccc(C(=O)N4CCC(N(C)C)CC4)cc3c2C(C)C)cc(C)n1 : 12
Cc1cc(-c2[nH]c3ccc(C(C)(C)C(=O)N4CCC(N)CC4)cc3c2C(C)C)ccn1 : 91
Cc1cc(-c2[nH]c3ccc(C(C)C(=O)N4CCC[C@H](N)C4)cc3c2C(C)C)ccn1 (stereo partly drawn) : 119

(I) Cc1cc(-c2[nH]c3ccc(C(C)(C)C(=O)N4CCCC5(CCNC5)C4)cc3c2C(C)C)ccn1 (stereo not drawn)
(II) Cc1cc(-c2[nH]c3ccc(C(C)C(=O)NC4CCCC(N)C4)cc3c2C(C)C)ccn1 (stereo not drawn) [Example 218]
(III) CCc1c(-c2ccc(OC)c(OC)c2)[nH]c2ccc(C(=O)NCCC(N)=O)cc12
(IV) Cc1cc(-c2[nH]c3ccc(C(C)(C)C(=O)N[C@H]4CCCC[C@H]4N)cc3c2C(C)C)ccn1
(V) COc1cc(-c2[nH]c3ccc(C(=O)N4CCCN(C)CC4)cc3c2C(C)C)cn2ncnc12
**Query** Ordering: ascending IC50. API: response body holds the labels in the requested order.
**Result** V, IV, I, III, II
(V: 2.6 nM, IV: 51 nM, I: 139 nM, III: 277 nM, II: 1080 nM)
